Source: patent US20240027479A1

Test: Presence of cannabinoids in exhaled breath before and after smoking (LC-HRMS)
Format: in vivo, human
Settings: >60 minutes after smoking
Quantity kind: Presence in exhaled breath, positive/evaluable subjects

Molecule	Value reported
CCCCCc1cc(O)c2c(c1)OC(C)(C)[C@@H]1CCC(C)=C[C@@H]21 [Δ^9-THC, Δ^9-tetrahydrocannabinol]	37/40
CCCCCc1cc(O)c(C/C=C(\C)CCC=C(C)C)c(O)c1 [CBG, cannabigerol]	1/40
CCCCCc1cc(O)c(C/C=C(\C)CCC=C(C)C)c(O)c1C(=O)O [CBGA, cannabigerolic acid]	4/40
CCCCCc1cc(O)c2c(c1)OC(C)(C)c1ccc(C)cc1-2 [CBN, cannabinol]	4/40
CCCCCc1cc(O)c2c(c1)OC(C)(CCC=C(C)C)C=C2 (stereo not drawn) [CBC, cannabichromene]	0/40
CCCc1cc(O)c2c(c1)OC(C)(C)[C@@H]1CCC(C)=C[C@@H]21 [Δ^9-THCV, Δ^9-tetrahydrocannabivarin]	0/40
